Taken from patent US20260248972A1.

Provide the reported tissue to tissue ratio at 24 h of each item.
- METHOD: in vivo
- EXPERIMENTAL_CONTEXT: BALB/c nude, mouse, in vivo, iv, total radioactivity, T/P Tumor/Pancreas ratio
Field format: numeric only.

input: Please look at this compound and report its tissue to tissue ratio at 24 h: C[C@@H](O)[C@H](NC(=O)[C@@H]1CSSC[C@H](NC(=O)[C@@H](Cc2ccccc2)NC(=O)[C@H](CCCCNC(=O)c2cccc(NC(=O)N[C@@H]3CN(C4CCCCC4)c4ccccc4N(CC(=O)C(C)(C)C)C3=O)c2)NC(=O)CCOCCOCCOCCNC(=O)CN2CCN(CC(=O)O)CCN(CC(=O)O)CCN(CC(=O)O)CC2)C(=O)N[C@@H](Cc2ccc(O)cc2)C(=O)N[C@H](Cc2c[nH]c3ccccc23)C(=O)N[C@@H](CCCCN)C(=O)N[C@@H]([C@@H](C)O)C(=O)N1)C(=O)O [Compound I-48, DOTA-PEG3-K(Z360)-f[CYwKTC]T-OH]
output: 14

input: Identify measured tissue to tissue ratio at 24 h associated with C[C@@H](O)[C@H](NC(=O)[C@@H]1CSSC[C@H](NC(=O)[C@@H](Cc2ccccc2)NC(=O)COCCOCCNC(=O)[C@H](CCCCNC(=O)[C@H](CCC(=O)O)NC(=O)c2cccc(NC(=O)N[C@@H]3CN(C4CCCCC4)c4ccccc4N(CC(=O)C(C)(C)C)C3=O)c2)NC(=O)CN2CCN(CC(=O)O)CCN(CC(=O)O)CCN(CC(=O)O)CC2)C(=O)N[C@@H](Cc2ccc(O)cc2)C(=O)N[C@H](Cc2c[nH]c3ccccc23)C(=O)N[C@@H](CCCCN)C(=O)N[C@@H]([C@@H](C)O)C(=O)N1)C(=O)O [Compound I-27, DOTA-K(-E-Z360)-OEG-f[CYwKTC]T-OH]
output: 16

input: Respond only with tissue to tissue ratio at 24 h recorded for C[C@@H](O)[C@H](NC(=O)[C@@H]1CSSC[C@H](NC(=O)[C@@H](Cc2ccccc2)NC(=O)CCOCCOCCOCCNC(=O)[C@H](CCCCNC(=O)c2cccc(NC(=O)N[C@@H]3CN(C4CCCCC4)c4ccccc4N(CC(=O)C(C)(C)C)C3=O)c2)NC(=O)CN2CCN(CC(=O)O)CCN(CC(=O)O)CCN(CC(=O)O)CC2)C(=O)N[C@@H](Cc2ccc(O)cc2)C(=O)N[C@H](Cc2c[nH]c3ccccc23)C(=O)N[C@@H](CCCCN)C(=O)N[C@@H]([C@@H](C)O)C(=O)N1)C(=O)O [Compound I-38, DOTA-K(Z360)-PEG3-f[CYwKTC]T-OH]
output: 18

input: Hello, please tell me recorded tissue to tissue ratio at 24 h for this one: C[C@@H](O)[C@H](NC(=O)[C@@H]1CSSC[C@H](NC(=O)[C@@H](Cc2ccccc2)NC(=O)CNC(=O)COCCOCCNC(=O)[C@H](CCCCNC(=O)c2cccc(NC(=O)N[C@@H]3CN(C4CCCCC4)c4ccccc4N(CC(=O)C(C)(C)C)C3=O)c2)NC(=O)CN2CCN(CC(=O)O)CCN(CC(=O)O)CCN(CC(=O)O)CC2)C(=O)N[C@@H](Cc2ccc(O)cc2)C(=O)N[C@H](Cc2c[nH]c3ccccc23)C(=O)N[C@@H](CCCCN)C(=O)N[C@@H]([C@@H](C)O)C(=O)N1)C(=O)O [Compound I-53, DOTA-K(Z360)-OEG-G-f[CYwKTC]T-OH]
output: 18

input: Indicate the recorded tissue to tissue ratio at 24 h value for this compound: C[C@@H](O)[C@H](NC(=O)[C@@H]1CSSC[C@H](NC(=O)[C@@H](Cc2ccccc2)NC(=O)[C@H](CCCCNC(=O)c2cccc(NC(=O)N[C@@H]3CN(C4CCCCC4)c4ccccc4N(CC(=O)C(C)(C)C)C3=O)c2)NC(=O)COCCOCCNC(=O)COCCOCCNC(=O)CN2CCN(CC(=O)O)CCN(CC(=O)O)CCN(CC(=O)O)CC2)C(=O)N[C@@H](Cc2ccc(O)cc2)C(=O)N[C@H](Cc2c[nH]c3ccccc23)C(=O)N[C@@H](CCCCN)C(=O)N[C@@H]([C@@H](C)O)C(=O)N1)C(=O)O [Compound I-41, DOTA-OEG-OEG-K(Z360)-f[CYwKTC]T-OH]
output: 24

input: // fetch tissue to tissue ratio at 24 h given entry C[C@@H](O)[C@H](NC(=O)[C@@H]1CSSC[C@H](NC(=O)[C@@H](Cc2ccccc2)NC(=O)[C@H](CCCCNC(=O)CC[C@H](NC(=O)CNC(=O)c2cccc(NC(=O)N[C@@H]3CN(C4CCCCC4)c4ccccc4N(CC(=O)C(C)(C)C)C3=O)c2)C(=O)O)NC(=O)COCCOCCNC(=O)CCC(C(=O)O)N2CCN(CC(=O)O)CCN(CC(=O)O)CCN(CC(=O)O)CC2)C(=O)N[C@@H](Cc2ccc(O)cc2)C(=O)N[C@H](Cc2c[nH]c3ccccc23)C(=O)N[C@@H](CCCCN)C(=O)N[C@@H]([C@@H](C)O)C(=O)N1)C(=O)O (stereo partly drawn)
output: 15

input: Tell me measured tissue to tissue ratio at 24 h for C[C@@H](O)[C@H](NC(=O)[C@@H]1CSSC[C@H](NC(=O)[C@@H](Cc2ccccc2)NC(=O)COCCOCCNC(=O)[C@H](CCCCNC(=O)c2cccc(NC(=O)N[C@@H]3CN(C4CCCCC4)c4ccccc4N(CC(=O)C(C)(C)C)C3=O)c2)NC(=O)COCCOCCNC(=O)CN2CCN(CC(=O)O)CCN(CC(=O)O)CCN(CC(=O)O)CC2)C(=O)N[C@@H](Cc2ccc(O)cc2)C(=O)N[C@H](Cc2c[nH]c3ccccc23)C(=O)N[C@@H](CCCCN)C(=O)N[C@@H]([C@@H](C)O)C(=O)N1)C(=O)O [Compound I-52, DOTA-OEG-K(Z360)-OEG-f[CYwKTC]T-OH] please.
output: 14

input: Given C[C@@H](O)[C@H](NC(=O)[C@@H]1CSSC[C@H](NC(=O)[C@@H](Cc2ccccc2)NC(=O)CC[C@H](NC(=O)[C@H](CCCCNC(=O)CC[C@H](NC(=O)CNC(=O)c2cccc(NC(=O)N[C@@H]3CN(C4CCCCC4)c4ccccc4N(CC(=O)C(C)(C)C)C3=O)c2)C(=O)O)NC(=O)CC[C@H](NC(=O)CN2CCN(CC(=O)O)CCN(CC(=O)O)CCN(CC(=O)O)CC2)C(=O)O)C(=O)O)C(=O)N[C@@H](Cc2ccc(O)cc2)C(=O)N[C@H](Cc2c[nH]c3ccccc23)C(=O)N[C@@H](CCCCN)C(=O)N[C@@H]([C@@H](C)O)C(=O)N1)C(=O)O , respond with its tissue to tissue ratio at 24 h.
output: 3.8

input: Note tissue to tissue ratio at 24 h for the compound shown: C[C@@H](O)[C@H](NC(=O)[C@@H]1CSSC[C@H](NC(=O)[C@@H](Cc2ccccc2)NC(=O)COCCOCCNC(=O)[C@H](CCCCNC(=O)[C@H](CCC(=O)O)NC(=O)c2cccc(NC(=O)N[C@@H]3CN(C4CCCCC4)c4ccccc4N(CC(=O)C(C)(C)C)C3=O)c2)NC(=O)CN2CCN(CC(=O)O)CCN(CC(=O)O)CCN(CC(=O)O)CC2)C(=O)N[C@@H](Cc2ccc(O)cc2)C(=O)N[C@H](Cc2c[nH]c3ccccc23)C(=O)N[C@@H](CCCCN)C(=O)N[C@@H]([C@@H](C)O)C(=O)N1)C(N)=O [Compound I-3, DOTA-K(-E-Z360)-OEG-f[CYwKTC]T-NH2]
output: 13
